Measured values drawn from paper PMC11432330 for this set.

# Measurement Target: HsrA (Helicobacter pylori, UniProt O25684)
# Sequence (O25684 entry or part of it): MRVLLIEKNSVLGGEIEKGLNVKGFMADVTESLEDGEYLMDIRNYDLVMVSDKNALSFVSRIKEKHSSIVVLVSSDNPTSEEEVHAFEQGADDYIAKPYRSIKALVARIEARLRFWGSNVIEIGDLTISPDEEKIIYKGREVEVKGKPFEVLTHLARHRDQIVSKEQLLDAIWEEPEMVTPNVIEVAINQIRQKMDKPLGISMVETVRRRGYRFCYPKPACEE
# Assay Method Text: Isothermal titration calorimetry (ITC) with HsrA
# Assay type: binding
# Cond: ITC, 25 °C, pH 8; relative error 15%; read-out: Kd
pKd: −log10 of the molar value.
Measurement Type: pKd

[
  {
    "Molecule": "N#C/C(=C\\C=C\\c1ccccc1)c1nc2ccccc2[nH]1",
    "Measurement Target": "HsrA (Helicobacter pylori, UniProt O25684)",
    "Measurement Type": "pKd",
    "Reported Value": 4.37
  },
  {
    "Molecule": "OC1(C(F)(F)F)CC(c2ccc3c(c2)Nc2ccccc2S3)=NN1 (centres unmarked)",
    "Measurement Target": "HsrA (Helicobacter pylori, UniProt O25684)",
    "Measurement Type": "pKd",
    "Reported Value": 5.00
  },
  {
    "Molecule": "NC(=NOC(=O)Nc1ccc(Cl)cc1)c1csc([N+](=O)[O-])c1",
    "Measurement Target": "HsrA (Helicobacter pylori, UniProt O25684)",
    "Measurement Type": "pKd",
    "Reported Value": 4.89
  },
  {
    "Molecule": "N#Cc1cnn(-c2ccc(C(F)(F)F)cc2[N+](=O)[O-])c1N",
    "Measurement Target": "HsrA (Helicobacter pylori, UniProt O25684)",
    "Measurement Type": "pKd",
    "Reported Value": 4.89
  },
  {
    "Molecule": "CSc1cccc(Nc2nc(C(C)(C)C)cs2)c1",
    "Measurement Target": "HsrA (Helicobacter pylori, UniProt O25684)",
    "Measurement Type": "pKd",
    "Reported Value": 4.31
  }
]

---

# Test system: H. pylori ATCC 700392 (26695)
# Assay Method Text: MIC/MBC, broth microdilution
# Format: cell-based, Helicobacter pylori
# Cond: H. pylori ATCC 700392 (26695)

[
  {
    "Molecule": "NC(Cn1ccc(C(F)(F)F)n1)=NOC(=O)Nc1ccc(SC(F)(F)F)cc1 [Ligand IX]",
    "Unit Annotation": "µg/mL",
    "Qualifier Sign": "=",
    "MBC": 16
  },
  {
    "Molecule": "CC(=O)Nc1cc(C(=O)c2cccs2)nn(-c2ccc(Cl)cc2)c1=O [Ligand XXXI]",
    "Unit Annotation": "µg/mL",
    "Qualifier Sign": ">",
    "MBC": 64
  },
  {
    "Molecule": "Cc1oc2ccccc2c1CC(=O)NNC(=S)Nc1cccc(C(F)(F)F)c1 [Ligand X]",
    "Unit Annotation": "µg/mL",
    "Qualifier Sign": "=",
    "MBC": 16
  },
  {
    "Molecule": "CCOC(=O)c1ccc(-n2nnc(C=CC=CN3CCOCC3)n2)cc1 [Ligand XVII]",
    "Unit Annotation": "µg/mL",
    "Qualifier Sign": "=",
    "MBC": 16
  },
  {
    "Molecule": "Cc1sc2c(c1C)C(O)=C(C(=O)Nc1ccc(OC(F)(F)F)cc1)S(=O)(=O)N2C [Ligand XXVIII]",
    "Unit Annotation": "µg/mL",
    "Qualifier Sign": "=",
    "MBC": 64
  }
]

---

This section presents compounds with their documented FICI values.
# Tested on: H. pylori ATCC 700392
# Assay Method Text: Checkerboard assay with first-line antibiotics
# Format: cell-based, Helicobacter pylori
# Cond: in combination with MTZ (metronidazole)

[
  {
    "Compound": "OC1(C(F)(F)F)CC(c2ccc3c(c2)Nc2ccccc2S3)=NN1 (stereo not drawn)",
    "FICI": 0.625
  },
  {
    "Compound": "CSc1cccc(NC(=S)NCCNc2c([N+](=O)[O-])cc(C(F)(F)F)cc2[N+](=O)[O-])c1",
    "FICI": 2
  },
  {
    "Compound": "CSc1cccc(Nc2nc(C(C)(C)C)cs2)c1",
    "FICI": 0.563
  },
  {
    "Compound": "NC(=NOC(=O)Nc1ccc(Cl)cc1)c1csc([N+](=O)[O-])c1",
    "FICI": 0.625
  },
  {
    "Compound": "N#C/C(=C\\C=C\\c1ccccc1)c1nc2ccccc2[nH]1",
    "FICI": 0.5
  },
  {
    "Compound": "N#Cc1cnn(-c2ccc(C(F)(F)F)cc2[N+](=O)[O-])c1N",
    "FICI": 0.625
  }
]

---

# Tested on: H. pylori ATCC 43504 (MTZ-R)
# Assay Method Text: MIC/MBC, broth microdilution
# Assay type: cell-based, Helicobacter pylori
# Cond: H. pylori ATCC 43504 (MTZ-R)
# Protocol: The antimicrobial activity of the HsrA inhibitors was evaluated by the determination of the minimal inhibitory concentration (MIC) against four different strains of H. pylori: ATCC 700392 (aka 26695), ATCC 43504 (MTZ-resistant reference strain), ATCC 700684 (CLR-resistant reference strain), and Donostia 2 (LVX-resistant clinical isolate). The MICs were determined by the broth microdilution method, as previously described. […]

[
  {
    "Structure Smiles String": "CC(=O)Nc1cc(C(=O)c2cccs2)nn(-c2ccc(Cl)cc2)c1=O",
    "Unit Annotation": "µg/mL",
    "MBC": 64
  },
  {
    "Structure Smiles String": "Cc1sc2c(c1C)C(O)=C(C(=O)Nc1ccc(OC(F)(F)F)cc1)S(=O)(=O)N2C",
    "Unit Annotation": "µg/mL",
    "MBC": 16
  },
  {
    "Structure Smiles String": "Cc1oc2ccccc2c1CC(=O)NNC(=S)Nc1cccc(C(F)(F)F)c1",
    "Unit Annotation": "µg/mL",
    "MBC": 8
  },
  {
    "Structure Smiles String": "CCOC(=O)c1ccc(-n2nnc(C=CC=CN3CCOCC3)n2)cc1",
    "Unit Annotation": "µg/mL",
    "MBC": 8
  },
  {
    "Structure Smiles String": "NC(Cn1ccc(C(F)(F)F)n1)=NOC(=O)Nc1ccc(SC(F)(F)F)cc1",
    "Unit Annotation": "µg/mL",
    "MBC": 8
  }
]

---

# System: H. pylori Donostia 2 (LVX-R)
# Assay Method Text: MIC/MBC, broth microdilution
# Format: cell-based, Helicobacter pylori
# Cond: Helicobacter pylori; H. pylori Donostia 2 (LVX-R); read-out: MBC
I'd appreciate it if you marked entries Fulfilled when MBC is lower than 4 µg/mL and Not fulfilled when it is not.

[
  {
    "Compound": "C[C@H]1COc2c(N3CCN(C)CC3)c(F)cc3c(=O)c(C(=O)O)cn1c23 [LVX, levofloxacin, reference compound]",
    "Assigned Class": "Not fulfilled"
  },
  {
    "Compound": "Cc1ncc([N+](=O)[O-])n1CCO [MTZ, metronidazole, reference compound]",
    "Assigned Class": "Not fulfilled"
  },
  {
    "Compound": "CC[C@H]1OC(=O)[C@H](C)[C@@H](O[C@H]2C[C@@](C)(OC)[C@@H](O)[C@H](C)O2)[C@H](C)[C@@H](O[C@@H]2O[C@H](C)C[C@H](N(C)C)[C@H]2O)[C@](C)(OC)C[C@@H](C)C(=O)[C@H](C)[C@@H](O)[C@]1(C)O [CLR, clarithromycin, reference compound]",
    "Assigned Class": "Fulfilled"
  },
  {
    "Compound": "N#C/C(=C\\C=C\\c1ccccc1)c1nc2ccccc2[nH]1",
    "Assigned Class": "Fulfilled"
  },
  {
    "Compound": "N#Cc1cnn(-c2ccc(C(F)(F)F)cc2[N+](=O)[O-])c1N",
    "Assigned Class": "Fulfilled"
  },
  {
    "Compound": "OC1(C(F)(F)F)CC(c2ccc3c(c2)Nc2ccccc2S3)=NN1 (centres unmarked)",
    "Assigned Class": "Fulfilled"
  }
]

---

Target or system C. jejuni ATCC 33560; recorded quantity MIC.
Measurement Type: MIC

[
  {
    "Compound": "C[C@H]1COc2c(N3CCN(C)CC3)c(F)cc3c(=O)c(C(=O)O)cn1c23 [LVX, levofloxacin, reference compound]",
    "Measurement Type": "MIC",
    "Reported Value": "< 0.12 µg/mL"
  },
  {
    "Compound": "NC(=NOC(=O)Nc1ccc(Cl)cc1)c1csc([N+](=O)[O-])c1",
    "Measurement Type": "MIC",
    "Reported Value": "≤ 0.5 µg/mL"
  },
  {
    "Compound": "CSc1cccc(Nc2nc(C(C)(C)C)cs2)c1",
    "Measurement Type": "MIC",
    "Reported Value": "> 64 µg/mL"
  }
]

---

This section presents compounds with their documented CC50 at 24 h values.
# Assay Method Text: Cytotoxicity, PrestoBlue cell viability assay
# Format: cell-based
# Cond: human; HeLa cells, 24 h exposure; read-out: CC50 (50% cytotoxic concentration)

[
  {
    "Compound": "OC1(C(F)(F)F)CC(c2ccc3c(c2)Nc2ccccc2S3)=NN1 (centres unmarked)",
    "Unit Annotation": "µg/mL",
    "CC50 at 24 h": 6.5
  },
  {
    "Compound": "NC(=NOC(=O)Nc1ccc(Cl)cc1)c1csc([N+](=O)[O-])c1",
    "Unit Annotation": "µg/mL",
    "CC50 at 24 h": 183
  },
  {
    "Compound": "CSc1cccc(NC(=S)NCCNc2c([N+](=O)[O-])cc(C(F)(F)F)cc2[N+](=O)[O-])c1",
    "Unit Annotation": "µg/mL",
    "CC50 at 24 h": 135
  },
  {
    "Compound": "N#C/C(=C\\C=C\\c1ccccc1)c1nc2ccccc2[nH]1",
    "Unit Annotation": "µg/mL",
    "CC50 at 24 h": 13.4
  },
  {
    "Compound": "CSc1cccc(Nc2nc(C(C)(C)C)cs2)c1",
    "Unit Annotation": "µg/mL",
    "CC50 at 24 h": 21.8
  }
]
